system: IFNα-stimulated STAT-dependent luciferase reporter in Kit225 T cells; assay: Kit225 T cell assay, IFNα stimulated STAT-dependent luciferase reporter; format: cell-based, human; details: Kit225 T cells, 200 U/mL human recombinant IFNα, 5-6 hours, luciferase; read-out: IFNα (Kit225 T Cell Inhibition Data)
pIC50: −log10 of the molar value.
RECORDED_METRIC: pIC50

molecule="CNC(=O)c1cnc(Nc2cc(C)c(F)cn2)cc1Nc1cccc(C(=O)NCC2(C)COC2)c1OC [Example 343]" quantitative_readout=6.85
molecule="CNC(=O)c1cnc(Nc2ccc(N3CCOCC3)cn2)cc1Nc1ccc(F)cc1O [Example 227]" quantitative_readout=5.49
molecule="CNC(=O)c1cnc(Nc2ccc(F)cn2)cc1Nc1ccccc1C(=O)N(C)C [Example 251]" quantitative_readout=6.17
molecule="CNC(=O)c1cnc(Nc2cccc(C)n2)cc1Nc1ccccc1C(N)=O [Example 67]" quantitative_readout=6.85
molecule="CNC(=O)c1cnc(Nc2ccc(F)cn2)cc1Nc1cccc(C#N)c1OC [Example 357]" quantitative_readout=7.52
molecule="CNC(=O)c1ccnc(Nc2cc(Nc3ccc(F)c(F)c3OC)c(C(=O)NC)cn2)c1 [Example 257]" quantitative_readout=6.22
molecule="CNC(=O)c1cnc(Nc2cccc(C)n2)cc1Nc1cc(F)cc(F)c1OC [Example 132]" quantitative_readout=6.92
molecule="CNC(=O)c1cnc(Nc2ccc(OC)cn2)cc1Nc1ccccc1S(C)(=O)=O [Example 434]" quantitative_readout=7.30

---

test system: IFNα-stimulated STAT-dependent luciferase reporter in Kit225 T cells; assay: Kit225 T cell assay, IFNα stimulated STAT-dependent luciferase reporter; type: cell-based, human; details: Kit225 T cells, 200 U/mL human recombinant IFNα, 5-6 hours, luciferase; read-out: IFNα (Kit225 T Cell Inhibition Data)
RECORDED_METRIC: IC50 (nM)

molecule_smiles=CNC(=O)c1cnc(Nc2cc(C)c(F)cn2)cc1Nc1cccc(C(=O)NCC(C)C)c1OC quantitative_readout=80
molecule_smiles=CNC(=O)c1cnc(Nc2ccc(N3CCOCC3)cn2)cc1Nc1ccccc1SC quantitative_readout=140
molecule_smiles=CNC(=O)c1cnc(Nc2cc(C)c(F)cn2)cc1Nc1ccc(C(=O)N(C)C)cc1S(C)(=O)=O quantitative_readout=240
molecule_smiles=CNC(=O)c1cnc(Nc2cc(C)c(F)cn2)cc1Nc1cccc(C(=O)NCC2(O)CCC2)c1OC quantitative_readout=130
molecule_smiles=CNC(=O)c1cnc(Nc2ccc(F)cn2)cc1Nc1ccccc1N(C)S(C)(=O)=O quantitative_readout=10
molecule_smiles=[2H]C([2H])([2H])NC(=O)c1cnc(Nc2ccc(F)cn2)cc1Nc1ccccc1S(C)(=O)=O quantitative_readout=60
molecule_smiles=CNC(=O)c1cnc(Nc2ccc(S(C)(=O)=O)cn2)cc1Nc1ccccc1S(C)(=O)=O quantitative_readout=1030
molecule_smiles=CNC(=O)c1cnc(Nc2ccc(F)cn2)cc1Nc1cccc(C(=O)NC2CC2)c1OC quantitative_readout=110

---

system: IFNα-stimulated STAT-dependent luciferase reporter in Kit225 T cells; assay: Kit225 T cell assay, IFNα stimulated STAT-dependent luciferase reporter; format: cell-based, human; conditions: Kit225 T cells, 200 U/mL human recombinant IFNα, 5-6 hours, luciferase; read-out: IFNα (Kit225 T Cell Inhibition Data)
pIC50: −log10 of the molar value.
In this section we review reported pIC50 values for a set of molecules.
RECORDED_METRIC: pIC50

molecule_smiles=CNC(=O)c1cnc(Nc2cc(C#N)ccn2)cc1Nc1cccc(F)c1S(C)(=O)=O quantitative_readout=6.02
molecule_smiles=CNC(=O)c1cnc(Nc2cc(C)c(F)cn2)cc1Nc1cccc(-c2nnc[nH]2)c1OC quantitative_readout=8.11
molecule_smiles=CNC(=O)c1cnc(Nc2ccc(N3CCOCC3)cn2)cc1Nc1ccccc1CCO quantitative_readout=5.34
molecule_smiles=CNC(=O)c1cnc(Nc2ccc3ccccc3n2)cc1Nc1ccccc1C(N)=O quantitative_readout=6.80
molecule_smiles=CNC(=O)c1cnc(Nc2ccc(F)cn2)cc1Nc1ccc(OC)cc1 quantitative_readout=5.45
molecule_smiles=CNC(=O)c1cnc(Nc2ccc(F)cn2)cc1Nc1ccc(F)cc1OC quantitative_readout=6.07
molecule_smiles=CNC(=O)c1cnc(Nc2ccc(C(F)(F)F)cn2)cc1Nc1ccccc1S(C)(=O)=O quantitative_readout=6.92
molecule_smiles=CNC(=O)c1cnc(Nc2cc(C)nc(C)n2)cc1Nc1cccc(-c2ncn(CC(F)(F)F)n2)c1OC quantitative_readout=7.52
molecule_smiles=CNC(=O)c1cnc(Nc2ccc(F)cn2)cc1Nc1ccc(C(N)=O)cc1C quantitative_readout=5.73
molecule_smiles=CNC(=O)c1cnc(Nc2cc(C)c(F)cn2)cc1Nc1cccc(C(=O)NCc2c[nH]c3ccccc23)c1OC quantitative_readout=6.80
molecule_smiles=CNC(=O)c1cnc(Nc2cc(C(N)=O)ccn2)cc1Nc1ccc(F)cc1OC quantitative_readout=5.74
molecule_smiles=CNC(=O)c1cnc(Nc2ccn(C)n2)cc1Nc1ccccc1S(C)(=O)=O quantitative_readout=6.72
molecule_smiles=CNC(=O)c1cnc(Nc2cccc(C(F)(F)F)n2)cc1Nc1ccccc1S(C)(=O)=O quantitative_readout=7.00
molecule_smiles=CNC(=O)c1cnc(Nc2cc(C)c(F)cn2)cc1Nc1cccc(-c2ncn(C)n2)c1OC quantitative_readout=8.40
molecule_smiles=CNC(=O)c1cnc(Nc2cnc(C)c(C)n2)cc1Nc1ccccc1S(C)(=O)=O quantitative_readout=7.10
molecule_smiles=CNC(=O)c1cnc(Nc2ccc(N3CCOCC3)cn2)cc1Nc1ccccc1OC(F)F quantitative_readout=6.85
molecule_smiles=CNC(=O)c1cnc(Nc2ccc(F)cn2)cc1Nc1ccc(-c2ncco2)cc1S(C)(=O)=O quantitative_readout=6.80
molecule_smiles=CNC(=O)c1cnc(Nc2ccc(N3CCOCC3)cn2)cc1Nc1cc(S(C)(=O)=O)ccc1OC quantitative_readout=5.08
molecule_smiles=CNC(=O)c1cnc(Nc2ccc(F)cn2)cc1Nc1cccc(C)c1 quantitative_readout=5.23
molecule_smiles=CCS(=O)(=O)c1ccccc1Nc1cc(Nc2cc(C#N)ccn2)ncc1C(=O)NC quantitative_readout=6.18
molecule_smiles=CNC(=O)c1ccnc(Nc2cc(Nc3cc(F)cc(F)c3OC)c(C(=O)NC)cn2)c1 quantitative_readout=6.80
molecule_smiles=CNC(=O)c1cnc(Nc2ccc(F)cn2)cc1Nc1ccc(C(=O)NCCO)cc1OC quantitative_readout=5.63
molecule_smiles=CNC(=O)c1cnc(Nc2cc(F)ccn2)cc1Nc1cc(F)ccc1S(C)(=O)=O quantitative_readout=6.72
molecule_smiles=CNC(=O)c1cnc(Nc2ccc(F)cn2)cc1Nc1ccc(C(N)=O)cc1S(C)(=O)=O quantitative_readout=5.58
molecule_smiles=CNC(=O)c1cnc(Nc2cc(C(=O)N3CCOCC3)ccn2)cc1Nc1cc(F)cc(F)c1OC quantitative_readout=6.68
molecule_smiles=CNC(=O)c1cnc(Nc2ccc(C)cn2)cc1Nc1ccc(F)cc1OC quantitative_readout=5.85
molecule_smiles=CNC(=O)c1cnc(Nc2cnc(C)cn2)cc1Nc1ccccc1S(C)(=O)=O quantitative_readout=6.89
molecule_smiles=CNC(=O)c1cnc(Nc2ccc(F)cn2)cc1Nc1cccc(C)c1C(N)=O quantitative_readout=6.25
molecule_smiles=CNC(=O)c1cnc(Nc2ccc(F)cn2)cc1Nc1ccc(F)cc1OCF quantitative_readout=6.62
molecule_smiles=CNC(=O)c1cnc(Nc2cc(C)c(F)cn2)cc1Nc1cccc(C(N)=O)c1OC quantitative_readout=8.00
molecule_smiles=CNC(=O)c1cnc(Nc2cc(C#N)ccn2)cc1Nc1ccc(Cl)cc1OC quantitative_readout=6.82
molecule_smiles=CNC(=O)c1cnc(Nc2ccc(N3CCOCC3)cn2)cc1Nc1ccc(Br)cc1OC quantitative_readout=6.82
molecule_smiles=CCOc1ccc(Nc2cc(Nc3ccccc3S(C)(=O)=O)c(C(=O)NC)cn2)nn1 quantitative_readout=6.74
molecule_smiles=CNC(=O)c1cnc(Nc2cc(C)nc(C)n2)cc1Nc1cccc(-c2nc(C)n(CCF)n2)c1OC quantitative_readout=8.00

---

System: IFNα-stimulated STAT-dependent luciferase reporter in Kit225 T cells
Test: Kit225 T cell assay, IFNα stimulated STAT-dependent luciferase reporter
Type: cell-based, human
Settings: Kit225 T cells, 200 U/mL human recombinant IFNα, 5-6 hours, luciferase; read-out: IFNα (Kit225 T Cell Inhibition Data)
Experimental: Kit225 T cells with a stably-integrated STAT-dependent luciferase reporter were plated in RPMI (Gibco) containing 10% heat-inactivated FBS (Gibco) and 100 U/mL PenStrep (Gibco). The cells were then stimulated with either 20 ng/mL human recombinant IL-23 or 200 U/mL human recombinant IFNα (PBL InterferonSource) for 5-6 hours. Luciferase expression was measured using the STEADY-GLO® Luciferase Assay System (Promega) according to the manufacturer's instructions.
pIC50: −log10 of the molar value.
RECORDED_METRIC: pIC50

compound="CNC(=O)c1cnc(Nc2ccc(F)cn2)cc1Nc1cccc(C(N)=O)c1OC [Example 315]" assay_system="IFNα-stimulated STAT-dependent luciferase reporter in Kit225 T cells" quantitative_readout=7.10
compound="CNC(=O)c1cnc(Nc2ccc(S(=O)(=O)N(C)C)cn2)cc1Nc1ccccc1C(N)=O [Example 88]" assay_system="IFNα-stimulated STAT-dependent luciferase reporter in Kit225 T cells" quantitative_readout=6.05
compound="CNC(=O)c1cnc(Nc2cc(C)c(F)cn2)cc1Nc1cccc(C(=O)NC)c1OC [Example 320]" assay_system="IFNα-stimulated STAT-dependent luciferase reporter in Kit225 T cells" quantitative_readout=7.52
compound="CNC(=O)c1ccc(Nc2cc(Nc3ccc(F)cn3)ncc2C(=O)NC)c(OC)c1 [Example 237]" assay_system="IFNα-stimulated STAT-dependent luciferase reporter in Kit225 T cells" quantitative_readout=6.34

Sourced from patent US9315494B2
